# IC50 listing for each entry below
test system: HeLa; assay: Cytotoxicity against human HeLa cells assessed as cell viability after 48 hrs by MTT assay; type: functional, cell-based
A number alone suffices; assume µM.

### Prompt Recall the recorded IC50 for C=C/C(C)=C\CC/C(C)=C/c1cc(C(=O)N2CCN(C)CC2)co1 with HeLa and state it.
### Response 30.5

### Prompt Recall the recorded IC50 for C=C/C(C)=C\CC/C(C)=C/c1cc(C(=O)NCCCNC(=O)c2coc(/C=C(\C)CC/C=C(/C)C=C)c2)co1 with HeLa and state it.
### Response 73.4

### Prompt Recall the recorded IC50 for C=C/C(C)=C\CC/C(C)=C/c1cc(C(=O)N2CCN(Cc3ccc4c(c3)OCO4)CC2)co1 with HeLa and state it.
### Response 44.2

### Prompt Recall the recorded IC50 for C=C/C(C)=C\CC/C(C)=C/c1cc(C(=O)N2CCN(CC)CC2)co1 with HeLa and state it.
### Response 35.9

### Prompt Recall the recorded IC50 for C=C/C(C)=C/CC/C(C)=C/c1cc(C(=O)OC)co1 with HeLa and state it.
### Response 35.5

---

target: Phospholipase A2 (Apis mellifera, UniProt P00630)
Sequence (P00630 whole entry): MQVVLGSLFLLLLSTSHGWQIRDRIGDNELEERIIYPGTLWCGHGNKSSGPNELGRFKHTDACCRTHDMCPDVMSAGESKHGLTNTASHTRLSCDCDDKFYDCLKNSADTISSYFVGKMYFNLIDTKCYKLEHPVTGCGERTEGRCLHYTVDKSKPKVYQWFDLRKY
PARAMETER: IC50 (µM)
A number alone suffices; assume µM.

### Prompt Requested field: IC50. Item: C=C/C(C)=C\CC/C(C)=C/c1cc(C(=O)O)co1
### Response 500

---

test system: HeLa; test: Cytotoxicity against human HeLa cells assessed as cell viability after 48 hrs by MTT assay; format: functional, cell-based
PARAMETER: pIC50
Value format note: pIC50 is -log10 of concentration (mol/L); just state the number.

### Prompt Requested field: pIC50. Item: C=C/C(C)=C\CC/C(C)=C/c1cc(C(=O)OC)co1
### Response 4.23

---

# pIC50 listing for each entry below
test system: HeLa; assay: Cytotoxicity against human HeLa cells assessed as cell viability after 48 hrs by MTT assay; assay type: functional, cell-based
Value format note: pIC50 is -log10 of concentration (mol/L); just state the number.

Example entries and their recorded answers appear below.
C=C/C(C)=C\CC/C(C)=C/c1cc(C(=O)N2CCN(c3ccccc3)CC2)co1
4.49
C=C/C(C)=C\CC/C(C)=C/c1cc(C(=O)N2CCN(Cc3ccccc3)CC2)co1
4.23
C=C/C(C)=C/CC/C(C)=C/c1cc(C(=O)O)co1
4.09
C=C/C(C)=C\CC/C(C)=C/c1cc(C(=O)O)co1
4.09
C=C/C(C)=C\CC/C(C)=C/c1cc(C(=O)N2CCN(C(c3ccccc3)c3ccccc3)CC2)co1
4.55

Here is the next item to consider.
### Prompt Requested field: pIC50. Item: C=C/C(C)=C\CC/C(C)=C/c1cc(C(=O)Nc2ccc(C)cc2)co1
### Response 4.23
